Tested on: A498 renal
Assay: NCI tumour cell line growth inhibition, 48 h
observation.type: TGI

# annotated cases, reported TGI shown
Q: Name the recorded TGI for "Nc1ccc2c(c1)Cc1cc(Cl)c(Cl)cc1-2" .
Ans: > 100 µM

Q: Name the recorded TGI for COc1ccc(C2=NN(C(=O)c3ccc(Cl)cc3)C(O)(c3cc(F)c(Cl)cc3Cl)C2)cc1OC (stereo not drawn) .
Ans: > 100 µM

Proceeding to the next compound to report its TGI.
Q: Name the recorded TGI for CCOC(=O)N1C=NC23C(c4ccccc4)C(c4ccccc4)C12C(=O)N(C)C(=O)N3C (stereo not drawn) .
Ans: > 100 µM

----------
Tested on: SF-268 CNS
Experiment: NCI tumour cell line growth inhibition, 48 h
observation.type: TGI

# annotated cases, reported TGI shown
Q: Name the recorded TGI for "COc1ccc(Nc2nc3cc(C(F)(F)F)ccc3nc2C(=O)O)cc1OC" .
Ans: > 100 µM

Q: Name the recorded TGI for COc1cc(/C=C2\CC3C4CCC5=CC(=O)CC[C@]5(C)C4CC[C@]3(C)C2=O)ccc1OCCCn1ccnc1 (some centres not stated) .
Ans: 34.4 µM

Q: Name the recorded TGI for COc1ccc2c(c1)N(CCO)C1=C(C(=O)OC1)C2c1cc(OC)c(OC)c(OC)c1 (configuration not stated) .
Ans: > 50 µM

Kindly give each listed record's TGI.
1. O=c1[nH]c2cc(C(F)(F)F)ccc2nc1CBr
2. CC(NC(=O)C(C)C(=O)Nc1ccc(C(F)(F)F)cc1)C(N)=O (configuration not stated)
3. COc1ccc(-c2cc(=O)c3c(O)c(OC)c(O)c(OC)c3o2)cc1OC
4. CCOc1cc(NC(C)=O)ccc1C(=O)NN1C(=O)/C(=C/c2ccco2)N=C1c1ccccc1
5. COc1ccc(C(OCC2OC(n3cnc4c(=O)n(Cc5ccccc5[N+](=O)[O-])nnc43)C(O)C2O)(c2ccccc2)c2ccc(OC)cc2)cc1 (configuration not stated)

Ans:
1: 59.1 µM; 2: > 100 µM; 3: > 100 µM; 4: > 100 µM; 5: > 100 µM

Kindly give each listed record's TGI.
1. O=C(CC(=O)Nc1ccccc1Cl)NNC(c1cc(N=Nc2ccc(Br)cc2)ccc1O)P(O)O (configuration not stated)
2. CC1(C)CCC(S(=O)(=O)c2ccc3c(c2)/C(=N\O)c2cc(S(=O)(=O)N4CCN(c5ccc(F)cc5O)CC4)ccc2-3)CC1
3. COc1ccc(C23c4ccc(OC)cc4CC2(c2ccc([N+](=O)[O-])cc2)Cc2cc(OC)ccc23)cc1 (configuration not stated)
4. Cc1ccc(S(=O)(=O)O/N=C2\CCC\C2=C/c2ccccc2)cc1

Ans:
> 10 µM
0.286 µM
> 56.9 µM
27.7 µM

----------
Would you mind telling me the reported TGI of each entry?
Tested on: M14 melanoma
Experiment: NCI tumour cell line growth inhibition, 48 h

# annotated cases, reported TGI shown
Q: Name the recorded TGI for "O=C1C=Cc2cscc21" .
Ans: 84.5 µM

Q: Name the recorded TGI for "Cc1ccc(C[N+](C)(C)N)cc1C" .
Ans: > 10 µM

Kindly give each listed record's TGI.
1. Cc1nc(-c2nc(C)c(C(=O)/C=C/c3ccc(N(C)C)cc3)s2)sc1C(=O)/C=C/c1ccc(N(C)C)cc1
2. COC(=O)c1c2c(c[n+]([O-])c1C)C(=O)C=C(NCc1ccccc1)C2=O
3. CC(=O)Nc1ccc(-c2csc(Nc3ccc(-c4csc(-c5ccccc5)n4)cc3)n2)cc1
4. COc1cc(/C=N/N=C(\N)NO)cc(Cl)c1O
5. Cc1sccc1C(=S)Nc1ccc(Cl)c(/C=N/OC(C)(C)C)c1

Ans:
["> 100 µM", "0.315 µM", "> 50 µM", "> 100 µM", "33.9 µM"]

Data origin, for the record: PubChem BioAssay (NCI)
